Molecular target: T1, P6SHb
T1 chain: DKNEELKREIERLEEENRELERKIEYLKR
Assay: two-hybrid library CCNG1;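 also: natural log of median RNA to DNA barcode read ratio; higher means stronger binding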
ENDPOINT_LABEL: interaction score
Answers are plain numbers.

Worked examples, 3 binders total:
[[record]]
binder = "DKIEELKRKNRELKEKNKELKEKIYRLKE [P2SHb]"
endpoint_label = "interaction score"
value = 0.195

[[record]]
binder = "DKNRELKEKIERLKEKIRELKEENRYLEE [P12SHb]"
endpoint_label = "interaction score"
value = 0.412

[[record]]
binder = "DEIERLERENEKLERENERLEREIRWLEE [P1SHb]"
endpoint_label = "interaction score"
value = -0.147


Answer for every listed entry: what is its interaction score? The entries follow.
1. DENRELEEKIRELKEKNEELKREIKYLEE [P5SHb]
2. DKNEELKREIERLEEENRELERKIEYLKR [P6SHb]

[1.24, 0.147]
